Biological target: human orexin 1 receptor (Homo sapiens)
Sequence (O43613 1-425): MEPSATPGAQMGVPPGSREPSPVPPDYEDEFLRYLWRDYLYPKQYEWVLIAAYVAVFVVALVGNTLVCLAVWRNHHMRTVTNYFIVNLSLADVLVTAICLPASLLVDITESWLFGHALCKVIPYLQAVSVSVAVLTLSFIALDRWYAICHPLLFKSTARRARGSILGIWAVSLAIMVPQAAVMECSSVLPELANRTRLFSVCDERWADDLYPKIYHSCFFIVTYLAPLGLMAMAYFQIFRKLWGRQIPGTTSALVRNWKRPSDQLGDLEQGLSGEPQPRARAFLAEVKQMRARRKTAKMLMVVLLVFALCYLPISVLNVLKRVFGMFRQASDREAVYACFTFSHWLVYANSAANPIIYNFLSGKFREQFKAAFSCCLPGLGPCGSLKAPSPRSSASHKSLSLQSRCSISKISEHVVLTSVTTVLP
Assay: Calcium accumulation in cells (FLIPR), antagonism of orexin A, human orexin 1 receptor
Conditions: calcium accumulation, antagonism of orexin A, Cheng-Prusoff corrected; read-out: FLIPR hOx1R Ki
Protocol: Calcium Accumulation in Cells (FLIPR): Cells expressing human orexin 1 or human orexin 2 receptors, were seeded at 8,000 cells/well in 384 well black-walled clear bottom, poly-D-lysine coated plates. […] On the day of the experiment, the cells seeded in black plates were treated with assay buffer containing the Ca^2+ sensitive fluorescent dye Fluo-4-AM (2 μM), and probenecid (0.1 mM). […] Fluorescence measurements were then continued every 1 S for 120 S followed by every 4 S for 240 S. […]
MEASURE: Ki

[[record]]
molecule = "O=C1N(Cc2c[nH]c3ccccc23)CCC12CCN(c1cnc3ccccc3n1)C2 (stereo not drawn)"
measurement_target = "human orexin 1 receptor (Homo sapiens)"
result = "1230 nM"

[[record]]
molecule = "COc1cc(C)nc(N2CC[C@]3(CCCN(Cc4c[nH]c5ccccc45)C3=O)C2)n1 (single isomer, unassigned)"
measurement_target = "human orexin 1 receptor (Homo sapiens)"
result = "10 nM"

[[record]]
molecule = "O=C1N(Cc2c[nH]c3ccccc23)CCC12CCN(c1nccc(C(F)(F)F)n1)C2 (stereo not drawn)"
measurement_target = "human orexin 1 receptor (Homo sapiens)"
result = "2410 nM"

[[record]]
molecule = "CCc1cccc(-c2cn(C)nc2CN2CCNC3(CCN(c4nc(C)cc(C)n4)CC3)C2=O)c1"
measurement_target = "human orexin 1 receptor (Homo sapiens)"
result = "1140 nM"

[[record]]
molecule = "Cc1cc(C)nc(N2CCC3(CCC(=O)N3Cc3cccc4[nH]ccc34)CC2)n1"
measurement_target = "human orexin 1 receptor (Homo sapiens)"
result = "1210 nM"


What Ki appears in the records for this molecule with human orexin 1 receptor (Homo sapiens)? COc1cc(N2CCC3(CCN(Cc4c[nH]c5ccccc45)C3=O)C2)nc(C2CC2)n1 (stereo not drawn) 1300 nM

###

Target: human orexin 2 receptor (Homo sapiens)
Construct: expressed in transfected cells
Sequence (O43614 1-444): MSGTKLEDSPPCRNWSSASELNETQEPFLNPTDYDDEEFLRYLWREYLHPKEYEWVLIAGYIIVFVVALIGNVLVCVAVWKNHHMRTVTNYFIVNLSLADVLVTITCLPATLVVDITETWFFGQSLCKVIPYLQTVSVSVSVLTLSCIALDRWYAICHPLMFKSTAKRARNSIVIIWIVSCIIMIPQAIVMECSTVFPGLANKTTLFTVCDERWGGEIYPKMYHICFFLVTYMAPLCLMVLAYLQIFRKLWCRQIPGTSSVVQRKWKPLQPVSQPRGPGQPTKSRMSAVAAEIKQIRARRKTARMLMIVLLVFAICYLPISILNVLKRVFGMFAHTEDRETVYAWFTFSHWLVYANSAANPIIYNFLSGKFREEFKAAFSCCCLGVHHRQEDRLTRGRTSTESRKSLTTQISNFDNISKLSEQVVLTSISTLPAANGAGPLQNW
Experiment: Radioligand binding assay ([3H]-SB649868 competition), human orexin 2 receptor
Conditions: radioligand [3H]-SB649868; read-out: Binding hOx2R Kd
MEASURE: Kd (nM)
The reply should be a number in nM, with the unit left off.

Worked cases, answers included:
[[record]]
compound = "COCc1cccc(-c2ocnc2CN2CCNC3(CCN(c4nc(C)cc(C)n4)CC3)C2=O)c1 [Example 1.27]"
measure = "Kd"
numeric_value = 140

[[record]]
compound = "COc1cncc(-c2cn(C)nc2CN2CCNC3(CCN(c4nc(C)cc(C)n4)CC3)C2=O)c1 [Example 1.55]"
measure = "Kd"
numeric_value = 162


What Kd appears in the records for this compound with human orexin 2 receptor (Homo sapiens)? COc1cc(C)nc(N2CCC3(CCCN(Cc4c[nH]c5ccccc45)C3=O)C2)n1 (centres unmarked) [Example 7.1] 13

What Kd appears in the records for this compound with human orexin 2 receptor (Homo sapiens)? COc1cccc(-c2n[nH]nc2CN2CCCC3(CCN(c4nccc(OC)n4)C3)C2=O)c1 (centres unmarked) [Example 7.6] 170

What Kd appears in the records for this compound with human orexin 2 receptor (Homo sapiens)? COCCOc1cccc(-c2nn(C)nc2CN2CCNC3(CCN(c4nc(C)cc(C)n4)CC3)C2=O)c1 [Example 1.78] 28

What Kd appears in the records for this compound with human orexin 2 receptor (Homo sapiens)? COc1ccc2[nH]cc(CN3CCOC4(CCN(c5nc(C)cc(C)n5)CC4)C3=O)c2c1 [Example 2.7] 6

What Kd appears in the records for this compound with human orexin 2 receptor (Homo sapiens)? Cc1cc(C)nc(N2CCC3(CC2)NCCN(Cc2nn(C)cc2-c2cccc(OC4CC4)c2)C3=O)n1 [Example 1.62] 8

What Kd appears in the records for this compound with human orexin 2 receptor (Homo sapiens)? O=C1COCC2(CCN(c3cnc4ccccc4n3)CC2)N1Cc1cccc(-c2ccccn2)c1 [Example 8.11] 4540

###

Molecular target: human orexin 2 receptor (Homo sapiens)
Construct: expressed in transfected cells
Sequence (O43614 1-444): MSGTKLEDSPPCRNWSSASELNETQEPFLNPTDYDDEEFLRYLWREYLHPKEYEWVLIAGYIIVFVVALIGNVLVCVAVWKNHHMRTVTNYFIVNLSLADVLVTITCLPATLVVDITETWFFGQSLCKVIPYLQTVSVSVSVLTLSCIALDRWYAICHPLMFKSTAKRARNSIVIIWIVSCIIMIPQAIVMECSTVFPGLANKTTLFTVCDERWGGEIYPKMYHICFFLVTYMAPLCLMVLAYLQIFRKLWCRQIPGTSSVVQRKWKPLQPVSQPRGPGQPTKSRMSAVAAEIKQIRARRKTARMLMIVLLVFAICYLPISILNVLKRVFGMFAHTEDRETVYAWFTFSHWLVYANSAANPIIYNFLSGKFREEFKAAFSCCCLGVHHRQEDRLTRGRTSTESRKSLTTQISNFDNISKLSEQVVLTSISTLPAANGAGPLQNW
Assay: Calcium accumulation in cells (FLIPR), antagonism of orexin A, human orexin 2 receptor
Type: cell-based
Details: calcium accumulation, antagonism of orexin A, Cheng-Prusoff corrected; read-out: FLIPR hOx2R Ki
pKi: −log10 of the molar value.
Would you mind labelling by pKi? At or over 7 is true, under is false.

Solved cases below.
[[record]]
compound = "Cc1cc(C#N)nc(N2CCC3(CC2)NCCN(Cc2nc(C)oc2-c2ccccc2)C3=O)n1"
measurement_target = "human orexin 2 receptor (Homo sapiens)"
qualitative_label = "false"

[[record]]
compound = "N#Cc1ccnc(N2CCC3(CC2)COCC(=O)N3Cc2cccc3[nH]ccc23)n1"
measurement_target = "human orexin 2 receptor (Homo sapiens)"
qualitative_label = "false"

[[record]]
compound = "COc1ccc2[nH]cc(CN3CCNC4(CCN(c5nc(C)cc(C)n5)CC4)C3=O)c2c1"
measurement_target = "human orexin 2 receptor (Homo sapiens)"
qualitative_label = "true"

[[record]]
compound = "COc1cc(C)nc(N2CCC3(CCN(Cc4c[nH]c5ccccc45)C3=O)CC2)n1"
measurement_target = "human orexin 2 receptor (Homo sapiens)"
qualitative_label = "true"

[[record]]
compound = "COc1cccc(-c2ocnc2CN2CCNC3(CCN(c4nc(C)cc(C)n4)CC3)C2=O)c1"
measurement_target = "human orexin 2 receptor (Homo sapiens)"
qualitative_label = "true"

[[record]]
compound = "COc1ccnc(N2CCC3(CCN(Cc4c[nH]c5ncccc45)C3=O)CC2)n1"
measurement_target = "human orexin 2 receptor (Homo sapiens)"
qualitative_label = "false"

[[record]]
compound = "COCc1cccc(-c2ocnc2CN2CCNC3(CCN(c4nc(C)cc(C#N)n4)CC3)C2=O)c1"
measurement_target = "human orexin 2 receptor (Homo sapiens)"
qualitative_label = "false"

[[record]]
compound = "Cc1cc(C)nc(N2CCC3(CC2)NCCN(Cc2nn(C)cc2-c2ccc4c(c2)OCCO4)C3=O)n1"
measurement_target = "human orexin 2 receptor (Homo sapiens)"
qualitative_label = "true"


Decide: is the reported value of pKi for "Cc1cc(C)nc(N2CCC3(CC2)NCCN(Cc2nc(C)oc2-c2ccccc2)C3=O)n1" equal to or greater than 7? false

Decide: is the reported value of pKi for "Cc1cc(C)nc(N2CCC3(CC2)NCCN(Cc2nn(C)cc2-c2cccc(OC(C)C)c2)C3=O)n1" equal to or greater than 7? true

Decide: is the reported value of pKi for "Cc1cc(C)nc(N2CCC3(CCN(Cc4c[nH]c5ccccc45)C3=O)CC2)n1" equal to or greater than 7? true

Decide: is the reported value of pKi for "Cc1ccc(C)c(CN2C(=O)CCC23CCN(c2nc(C)cc(C)n2)CC3)c1" equal to or greater than 7? true

Decide: is the reported value of pKi for O=C1N(Cc2c[nH]c3ccccc23)CCC12CCN(c1nccc(-n3ccnc3)n1)C2 (stereo not shown) equal to or greater than 7? false

Decide: is the reported value of pKi for "Cc1cc(C)nc(N2CCC3(CCC(=O)N3Cc3cccc4[nH]ccc34)CC2)n1" equal to or greater than 7? true

Decide: is the reported value of pKi for O=C1N(Cc2c[nH]c3ccccc23)CCC12CCN(c1ncc3cc(F)ccc3n1)C2 (stereo not shown) equal to or greater than 7? false

Decide: is the reported value of pKi for "COc1ccc(-c2cn(C)nc2CN2CCNC3(CCN(c4nc(C)cc(C)n4)CC3)C2=O)cc1" equal to or greater than 7? false

Decide: is the reported value of pKi for "O=C1N(Cc2ccccc2-c2ccccc2)CCC12CCN(c1cnc3ccccc3n1)CC2" equal to or greater than 7? false
